system: L1210 leukemia ip in BDF1 mice, survival T/C; experiment: NCI In Vivo Anticancer Drug Screen. Data for tumor model L1210 Leukemia (intraperitoneal) in B6D2F1 (BDF1) mice; details: endpoint: mean survival time; dose: 50.0 mg/kg/injection; schedule: Q01DX009 (ip); vehicle: Klucel (hydroxypropylcellulose) (HPC); higher = longer survival
Inconclusive results and toxic doses are left out.
Entries and their T/C
Endpoint: T/C

| Compound | Study target | Endpoint | Measured value |
| --- | --- | --- | --- |
| O=C(N1CCCCC1)C(Cl)(Cl)Cl | L1210 leukemia ip in BDF1 mice, survival T/C | T/C | 98 % of control |
| CCC(C)c1ccccc1OC(=O)Nc1ccc(OC)cc1 (configuration not stated) | L1210 leukemia ip in BDF1 mice, survival T/C | T/C | 105 % of control |
| O=C1CN(O)C(c2ccccc2)=c2cc(Cl)ccc2=N1 | L1210 leukemia ip in BDF1 mice, survival T/C | T/C | 101 % of control |
| O=C(/C=C/c1ccccc1Cl)c1ccccc1 | L1210 leukemia ip in BDF1 mice, survival T/C | T/C | 99 % of control |
| O=C(O)Cc1ccc2[nH]c3c(c2c1)CCCC3 | L1210 leukemia ip in BDF1 mice, survival T/C | T/C | 105 % of control |
| NC(=Nc1ccccc1)SCc1ccc([N+](=O)[O-])cc1 | L1210 leukemia ip in BDF1 mice, survival T/C | T/C | 108 % of control |
| COc1ccc(OC)c(NC(=O)Oc2ccccc2F)c1 | L1210 leukemia ip in BDF1 mice, survival T/C | T/C | 97 % of control |
